Some binders, each annotated with its measured MFI fold change to isotype ctrl.
Target: T1, human CCR8 (human, UniProt P51685 1-355)
T1 construct: the cells are named under assay; also called hCCR8
Test: flow cytometry, hCCR8 transfected CHOK1 cells
Method: Briefly, 1·10⁵ cells per well in a 96 well plate were incubated with a dilution of unconjugated anti-CCR8 mAb at 10 μg/mL then diluted at 1/3.33, 4 dilution points (during 30 min at 4° C.). […] To determine EC50 value, 8 concentrations of anti-CCR8 mAb were tested. […] Bound detection antibody is quantified on a MacsQuant16 (Miltenyi, Gladbach, Germany) (B1 or B2 channel, 5000 events per acquisition).
Numbers only here, please. The scale is fold.

Name the reported MFI fold change to isotype ctrl value associated with the binder 3-21 (antibody, V domains shown) VH: QVQLKESGPGLVAPSQSLSITCTVSGLSMNDYVVTWIRQPPGKGLEWLGVIWGGGNTYYNSDLKSRLSITKDNSKSQVFFKMSSLQTDDTAVYYCARRHRDYALDYWGQGISVTVSS VL: DVVMTQTPLSLPVSLGDQASISCRSSQSLVYSNGNTYLHWYLQKPGQSPKLLIYKVSNRFSGVPDRFSGSGSGTDFTLKISRVEAEDLGVYFCSQSTYVPPTFGGGTKLEIK
11.9

Name the reported MFI fold change to isotype ctrl value associated with the binder 3-53 (antibody, V domains shown) VH: QVQVQQSGAELARPGASVKMSCKASGYTFTTYAMHWVKQRPGQGLEWIGHINPSSGYSNYNQKFKDKATLTADKSSSTAYMQLSSLTSEDSAVYYCARSEVRRGYFDVWGAGTTVTVSS VL: DIQMTQTTSSLSASLGDRVTISCRTSQDIRNYLNWYQQKPDGTVKLLISYTSRLHSGVPSRFSGSGSGTDYSLTISNLEQEDFATYFCQQGNTLPPTFGGGTRVEIK
9.2
